Target: OXA-1 (Escherichia coli, UniProt P13661)
Experiment: Competitive assay with nitrocefin (RSAI)
Assay type: biochemical, E. coli 1527E
Set-up: the beta-lactamase has to be extracted from the cells for the purpose of the present invention; made in house; host or cells: E. coli 1527E according to the earlier reading (crude cell extract)
RSAI strictly under 0.9 means condition met; at 0.9 or over means condition not met.

Input line: RSAI under 0.9? Item: Cc1onc(-c2ccccc2Cl)c1C(=O)N[C@@H]1C(=O)N2[C@@H]1SC(C)(C)[C@@H]2C(=O)O [Cloxacillin]
Output line: condition met

Input line: RSAI under 0.9? Item: CO[C@@]1(NC(=O)Cc2cccs2)C(=O)N2C(C(=O)O)=C(COC(N)=O)CS[C@@H]21 [Cefoxi-tin, cefoxitin]
Output line: condition not met

Input line: RSAI under 0.9? Item: CC1(C)S[C@@H]2[C@H](NC(=O)C(C(=O)O)c3ccccc3)C(=O)N2[C@H]1C(=O)O (stereo partly shown) [Carbeni-cillin, carbenicillin]
Output line: condition met

Input line: RSAI under 0.9? Item: O=C(Cc1cccs1)N[C@@H]1C(=O)N2C(C(=O)[O-])=C(C[n+]3ccccc3)CS[C@H]12 [Cephalo-ridine, cephaloridine]
Output line: condition not met

Input line: RSAI under 0.9? Item: CC1(C)S[C@@H]2[C@H](NC(=O)[C@H](C(=O)O)c3ccsc3)C(=O)N2[C@H]1C(=O)O [Ticar-cillin, ticarcillin]
Output line: condition met

Input line: RSAI under 0.9? Item: CO/N=C(\C(=O)N[C@@H]1C(=O)N2C(C(=O)O)=C(COC(N)=O)CS[C@H]12)c1ccco1 [Cefuroxime]
Output line: condition not met

Input line: RSAI under 0.9? Item: CO/N=C(\C(=O)N[C@@H]1C(=O)N2C(C(=O)O)=CCS[C@H]12)c1csc(N)n1 [Cefti-zoxime, ceftizoxime]
Output line: condition not met

Input line: RSAI under 0.9? Item: CC1(C)S[C@@H]2[C@H](NC(=O)[C@H](N)c3ccc(O)cc3)C(=O)N2[C@H]1C(=O)O [Amoxy-cillin, amoxycillin]
Output line: condition not met

Input line: RSAI under 0.9? Item: CC(C)(O/N=C(\C(=O)N[C@@H]1C(=O)N2C(C(=O)[O-])=C(C[n+]3ccccc3)CS[C@H]12)c1csc(N)n1)C(=O)O [Ceftazidime (GR 20,263), Ceftazidime]
Output line: condition not met

Input line: RSAI under 0.9? Item: CC1=C(C(=O)O)N2C(=O)[C@@H](NC(=O)[C@H](N)C3=CCC=CC3)[C@H]2SC1 [Cephra-dine, cephradine]
Output line: condition not met

###

I'd be grateful if you could share measured RSAI for these entries.
Biological target: OXA-3 (Pseudomonas aeruginosa)
Assay: Competitive assay with nitrocefin (RSAI)
Type: biochemical, E. coli R57B
Parameters: Normally, therefore, the beta-lactamase has to be extracted from the cells for the purpose of the present invention; endogenous in cells
Lab note: jot the number down without any unit.

Input line: Query for OXA-3 (Pseudomonas aeruginosa): what RSAI does the record show for CO/N=C(\C(=O)N[C@@H]1C(=O)N2C(C(=O)O)=C(COC(N)=O)CS[C@H]12)c1ccco1 [Cefuroxime] ?
Output line: 0.003

Input line: Query for OXA-3 (Pseudomonas aeruginosa): what RSAI does the record show for CC1(C)S[C@@H]2[C@H](/N=C/N3CCCCCC3)C(=O)N2[C@H]1C(=O)O [Mecil-linam, Mecillinam] ?
Output line: 30

Input line: Query for OXA-3 (Pseudomonas aeruginosa): what RSAI does the record show for Cc1nnc(SCC2=C(C(=O)O)N3C(=O)[C@@H](NC(=O)Cn4cnnn4)[C@H]3SC2)s1 [Cephalo-zolin, Cephalozolin] ?
Output line: 3.4

Input line: Query for OXA-3 (Pseudomonas aeruginosa): what RSAI does the record show for CC1(C)S[C@@H]2[C@H](NC(=O)Cc3ccccc3)C(=O)N2[C@H]1C(=O)O [Peni-cillin G, Penicillin G] ?
Output line: 0.4

###

Biological target: PSE-4 (Pseudomonas aeruginosa)
Assay: Competitive assay with nitrocefin (RSAI)
Assay type: biochemical, Ps.aerug. 1559E
Parameters: Normally, therefore, the beta-lactamase has to be extracted from the cells for the purpose of the present invention; endogenous in cells
I'd be grateful if you could share measured RSAI for these entries.
Lab note: jot the number down without any unit.

Input line: Which RSAI is reported for this compound? CO/N=C(\C(=O)N[C@@H]1C(=O)N2C(C(=O)O)=C(COC(C)=O)CS[C@H]12)c1csc(N)n1
Output line: 50

Input line: Which RSAI is reported for this compound? CC1(C)S[C@@H]2[C@H](NC(=O)[C@H](N)c3ccc(O)cc3)C(=O)N2[C@H]1C(=O)O
Output line: 1

Input line: Which RSAI is reported for this compound? Cn1nnnc1SCC1=C(C(=O)O)N2C(=O)[C@@H](NC(=O)[C@H](O)c3ccccc3)[C@H]2SC1
Output line: 9

Input line: Which RSAI is reported for this compound? Cc1nnc(SCC2=C(C(=O)O)N3C(=O)[C@@H](NC(=O)Cn4cnnn4)[C@H]3SC2)s1
Output line: 2.6

Input line: Which RSAI is reported for this compound? CC1(C)S[C@@H]2[C@H](NC(=O)[C@H](NC(=O)N3CCNC3=O)c3ccccc3)C(=O)N2[C@H]1C(=O)O
Output line: 0.36

Input line: Which RSAI is reported for this compound? CC1(C)S[C@@H]2[C@H](/N=C/N3CCCCCC3)C(=O)N2[C@H]1C(=O)O
Output line: 140

Input line: Which RSAI is reported for this compound? CO/N=C(\C(=O)N[C@@H]1C(=O)N2C(C(=O)O)=CCS[C@H]12)c1csc(N)n1
Output line: 380

Input line: Which RSAI is reported for this compound? CC1(C)S[C@@H]2[C@H](NC(=O)[C@H](NC(=O)N3CCN(S(C)(=O)=O)C3=O)c3ccccc3)C(=O)N2[C@H]1C(=O)O
Output line: 0.9

Input line: Which RSAI is reported for this compound? CO[C@@]1(NC(=O)Cc2cccs2)C(=O)N2C(C(=O)O)=C(COC(N)=O)CS[C@@H]21
Output line: 27

Input line: Which RSAI is reported for this compound? CC(=O)OCC1=C(C(=O)O)N2C(=O)[C@@H](NC(=O)Cc3cccs3)[C@H]2SC1
Output line: 6

Input line: Which RSAI is reported for this compound? CC1(C)S[C@@H]2[C@H](NC(=O)C(C(=O)O)c3ccccc3)C(=O)N2[C@H]1C(=O)O (some centres unmarked)
Output line: 3

Input line: Which RSAI is reported for this compound? CO/N=C(\C(=O)N[C@@H]1C(=O)N2C(C(=O)O)=C(COC(N)=O)CS[C@H]12)c1ccco1
Output line: 34

Input line: Which RSAI is reported for this compound? CC1(C)S[C@@H]2[C@H](NC(=O)Cc3ccccc3)C(=O)N2[C@H]1C(=O)O
Output line: 0.48

###

I'd be grateful if you could share measured RSAI for these entries.
Molecular target: Chromosomal, induced beta-lactamase enzyme (Pseudomonas aeruginosa, UniProt P24735)
Construct: Normally, therefore, the beta-lactamase has to be extracted from the cells for the purpose of the present invention; endogenous in cells; host or cells: Pseudomonas aeruginosa 1937E grown with ampicillin
Experiment: Competitive assay with nitrocefin (RSAI)
Format: biochemical, Ps.aerug. 1937E + ampicillin

Input line: Which RSAI is reported for this molecule? CO[C@@]1(NC(=O)Cc2cccs2)C(=O)N2C(C(=O)O)=C(COC(N)=O)CS[C@@H]21
Output line: 0.003

Input line: Which RSAI is reported for this molecule? CCN1CCN(C(=O)N[C@@H](C(=O)N[C@@H]2C(=O)N3C(C(=O)O)=C(CSc4nnnn4C)CS[C@H]23)c2ccc(O)cc2)C(=O)C1=O
Output line: 0.5

Input line: Which RSAI is reported for this molecule? Cc1nnc(SCC2=C(C(=O)O)N3C(=O)[C@@H](NC(=O)Cn4cnnn4)[C@H]3SC2)s1
Output line: 15

Input line: Which RSAI is reported for this molecule? CC1(C)S[C@@H]2[C@H](NC(=O)[C@H](C(=O)O)c3ccsc3)C(=O)N2[C@H]1C(=O)O
Output line: 0.0065

Input line: Which RSAI is reported for this molecule? CO/N=C(\C(=O)N[C@@H]1C(=O)N2C(C(=O)O)=C(CSc3nc(=O)c(=O)[nH]n3C)CS[C@H]12)c1csc(N)n1
Output line: 38

Input line: Which RSAI is reported for this molecule? C[C@@H](O)[C@H]1C(=O)N2C(C(=O)O)=C(SCCN=CN)C[C@H]12
Output line: 0.015

###

Target: Chromosomal, hyper-induced beta-lactamase enzyme (Escherichia coli)
Assay: Competitive assay with nitrocefin (RSAI)
Format: biochemical, E. coli SNU35
Set-up: Normally, therefore, the beta-lactamase has to be extracted from the cells for the purpose of the present invention; endogenous in cells; host or cells: E. coli SNU 35 (artificially produced strain)
Marks after values point to notes of the source that are not given here.
quantity-name: RSAI

Input line: Query for Chromosomal, hyper-induced beta-lactamase enzyme (Escherichia coli): what RSAI does the record show for CO/N=C(\C(=O)N[C@@H]1C(=O)N2C(C(=O)O)=C(COC(N)=O)CS[C@H]12)c1ccco1 ?
Output line: 0.002

Input line: Query for Chromosomal, hyper-induced beta-lactamase enzyme (Escherichia coli): what RSAI does the record show for O=C(O)[C@H]1/C(=C/CO)O[C@@H]2CC(=O)N21 ?
Output line: 4

Input line: Query for Chromosomal, hyper-induced beta-lactamase enzyme (Escherichia coli): what RSAI does the record show for CC1(C)S[C@@H]2[C@H](/N=C/N3CCCCCC3)C(=O)N2[C@H]1C(=O)O ?
Output line: 0.7*

Input line: Query for Chromosomal, hyper-induced beta-lactamase enzyme (Escherichia coli): what RSAI does the record show for O=C(Cc1cccs1)N[C@@H]1C(=O)N2C(C(=O)[O-])=C(C[n+]3ccccc3)CS[C@H]12 ?
Output line: 2*

Input line: Query for Chromosomal, hyper-induced beta-lactamase enzyme (Escherichia coli): what RSAI does the record show for C[C@@H](O)[C@H]1C(=O)N2C(C(=O)O)=C(SCCN=CN)C[C@H]12 ?
Output line: 2

Input line: Query for Chromosomal, hyper-induced beta-lactamase enzyme (Escherichia coli): what RSAI does the record show for CO/N=C(\C(=O)N[C@@H]1C(=O)N2C(C(=O)O)=C(COC(C)=O)CS[C@H]12)c1csc(N)n1 ?
Output line: 0.004

Input line: Query for Chromosomal, hyper-induced beta-lactamase enzyme (Escherichia coli): what RSAI does the record show for CC1(C)S[C@@H]2[C@H](NC(=O)Cc3ccccc3)C(=O)N2[C@H]1C(=O)O ?
Output line: 0.18
